test: plasma protein binding rate (Human); type: in vitro ADME
quantity-measured: fraction unbound
Lab note: record the figure alone, no unit after it.

Look up fraction unbound for this compound: `CC/C(=C(/c1ccc(/C=C/C(=O)O)cc1)c1cc2ccccc2[nH]1)c1ccc(F)cc1Cl`
0.028

---

assay: in vivo PK properties (cassette PK); settings: plasma, po, 2.5 mg/kg, P.O 2.5 mpk
quantity-measured: Cmax (nM)
Give just the numeric value; nM need not be written.

1) CC/C(=C(/c1ccc(/C=C/C(=O)O)cc1)c1ccc2[nH]ncc2c1)c1ccc(F)cc1Cl [ARN-810, reference compound] ... 924

Now for another entry.
# Cmax lookup, item CC/C(=C(/c1ccc(/C=C/C(=O)O)cc1)c1cc2ccccc2[nH]1)c1ccc(F)cc1Cl [Compound I-1]
2150
